- Test system: MCF7
- experiment notes: Cytotoxicity against human MCF7 cells
- Type: functional, cell-based
experimental readout: IC50
Express the reported value numerically, then name its unit.

Provide value of IC50 for this record tested with MCF7: COc1cccc2c1C(=O)c1c(O)c3c(c(O)c1C2=O)C[C@@](O)(C(=O)CO)C[C@@H]3O[C@H]1C[C@H](N)[C@H](O)[C@H](C)O1 [DOXORUBICIN]
0.1 µM
